- studyTarget: dopamine D2 receptors (Bos taurus)
- Sequence (P20288 whole entry): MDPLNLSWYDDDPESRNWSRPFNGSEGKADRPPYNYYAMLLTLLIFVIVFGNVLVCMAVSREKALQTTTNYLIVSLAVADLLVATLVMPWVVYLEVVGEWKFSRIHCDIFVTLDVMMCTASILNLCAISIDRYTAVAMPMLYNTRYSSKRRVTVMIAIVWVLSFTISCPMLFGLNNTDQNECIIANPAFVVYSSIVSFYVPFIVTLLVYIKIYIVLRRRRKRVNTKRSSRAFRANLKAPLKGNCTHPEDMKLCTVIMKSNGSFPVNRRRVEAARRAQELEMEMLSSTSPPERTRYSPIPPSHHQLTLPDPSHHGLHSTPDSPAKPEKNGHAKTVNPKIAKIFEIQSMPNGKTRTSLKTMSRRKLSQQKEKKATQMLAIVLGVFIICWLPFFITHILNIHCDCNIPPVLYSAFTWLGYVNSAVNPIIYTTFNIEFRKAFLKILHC
- protocolNotes: Radioligand binding to dopamine D2 receptors ([3H]-Spiperone, bovine caudate nuclei)
- experimentalContext: bovine caudate nuclei; [3H]-Spiperone; 75 minutes at room temperature; 30 nM ketanserin; two-site fitted model; read-out: D2 (pK1) (converted)
- Method: Radioligand Binding Experiments (Dopamine Receptor Affinity Information; pK1 values): Bovine brains were obtained fresh from a local slaughterhouse. […] The assays were terminated by filtration using a 24-port Brandell cell harvester over filters that had been previously soaked in 0.1% polyethyleneimine, and the filters were washed three times by filtration of cold buffer. […] Binding data were analyzed using the Ligand program of Munson and Rodbard (1980). […]
Structures can show the parent of a compound that is named as a salt.
We'd kindly ask you to apply these Ki classes: low bin: < 0.1 µM; mid bin: ≥ 0.1 µM and < 0.3 µM; high bin: ≥ 0.3 µM

compound: CCCN(CCOc1cccc(F)c1)C1CCc2c(O)cccc2C1 (centres unmarked) [Example 45]
className: high bin
//
compound: CCCN(CCOc1cccc2ccccc12)C1CCc2c(O)cccc2C1 (centres unmarked) [Example 48, hydrochloride]
className: high bin
//
compound: CCCN(CC[C@@H]1OC(=O)c2ccccc21)[C@H]1CCc2c(O)cccc2C1 [Example 37]
className: mid bin
//
compound: CCCN(CCOc1ccc2ccccc2c1)C1CCc2c(O)cccc2C1 (centres unmarked) [Example 32]
className: high bin
//
compound: CCCN(CCSc1ccccc1)C1CCc2c(O)cccc2C1 (centres unmarked) [Example 34]
className: low bin
//
compound: CCCN(CCC1OC(=O)c2ccccc21)C1CCc2c(O)cccc2C1 (centres unmarked) [Example 9]
className: low bin
//
compound: CCCN(CCC(c1ccccc1)c1ccccc1)C1CCc2c(O)cccc2C1 (centres unmarked) [Example 14]
className: high bin
//
compound: CCCN(CCOc1ccccc1)C1CCc2c(O)cccc2C1 (centres unmarked) [Example 2]
className: mid bin
//
compound: CCCN(CCOc1ccccc1)C1CCc2ccc(O)cc2C1 (centres unmarked) [Example 39]
className: high bin
//
compound: CCCN(CCOc1ccccc1)C1CCc2c(O)cccc2C1 (single isomer, unassigned; (-)) [Example 30]
className: mid bin
//
compound: CCCN(CC(c1ccccc1)c1ccccc1)C1CCc2c(O)cccc2C1 (centres unmarked) [Example 12]
className: low bin
